Organism: Mus musculus
Test: Effective dose for inhibition of norepinephrine induced lethality in mouse
Type: functional
experimental_endpoint: ED50

Lab book: ED50 of `O=C(CCCN1CCC(O)(c2ccc(Cl)cc2)CC1)c1ccc(F)cc1` noted as 26 mg/kg

Lab book: ED50 of CSc1ccc2c(c1)N(CCC1CCCCN1C)c1ccccc1S2 (centres undefined) noted as 2.2 mg/kg

Lab book: ED50 of OC(CCCN1CCN(c2ncc(F)cn2)CC1)c1ccc(F)cc1 (stereo in doubt; 16) noted as > 100 mg/kg

# evaluate next
Lab book: ED50 of `CN1CCN(C2=Nc3cc(Cl)ccc3Nc3ccccc32)CC1` noted as 3.5 mg/kg

====

Molecular target: Sigma non-opioid intracellular receptor 1 (Rattus norvegicus, UniProt Q9R0C9)
Sequence (Q9R0C9 whole entry): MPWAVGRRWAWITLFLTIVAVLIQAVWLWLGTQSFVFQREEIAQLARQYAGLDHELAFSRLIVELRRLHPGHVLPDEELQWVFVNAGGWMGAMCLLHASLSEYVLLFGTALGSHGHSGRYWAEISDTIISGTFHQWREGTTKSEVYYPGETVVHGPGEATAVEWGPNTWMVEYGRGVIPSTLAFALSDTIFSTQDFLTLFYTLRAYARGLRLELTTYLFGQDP
Assay: Compound was tested in vitro for its ability to displace radioligand (+)-[3H]-3-PPP from rat cortical sigma receptor
experimental_endpoint: pIC50
Interpret pIC50 as the negative base-10 log of the concentration measured in mol/L.

Assay Sigma non-opioid intracellular receptor 1 (Rattus norvegicus, UniProt Q9R0C9), sample `O=C(CCN1CCN(c2ncc(F)cn2)CC1)c1ccc(F)cc1` , pIC50 read: 7.16

====

The following compounds are shown together with reported ED50 values.
Species on record: Rattus norvegicus
Assay: Effective peroral dose for inhibition of conditioned avoidance response in rats
Type: functional
Conditions: po

In the examples that follow, each entry is paired with its recorded ED50.
Lab book: ED50 of CCC(O)(CCCN1CCN(c2ncc(F)cn2)CC1)c1ccc(F)cc1 (configuration not stated) noted as 48.5 mg/kg

Lab book: ED50 of CSc1nc(N2CCN(CCCC(O)c3ccc(F)cc3)CC2)ncc1F (configuration not stated) noted as > 100 mg/kg

Lab book: ED50 of `O=C(CCCN1CCN(c2ncc(Cl)cn2)CC1)c1ccc(F)cc1` noted as > 100 mg/kg

Lab book: ED50 of COc1nc(N2CCN(CCCC(O)c3ccc(F)cc3)CC2)ncc1F (configuration not stated) noted as 40.8 mg/kg

Further cases:
Lab book: ED50 of `O=C(CCN1CCN(c2ncc(F)cn2)CC1)c1ccc(F)cc1` noted as > 100 mg/kg

Lab book: ED50 of `O/N=C(\CCCN1CCN(c2ncc(F)cn2)CC1)c1ccc(F)cc1` noted as > 100 mg/kg

Lab book: ED50 of CCC(O)(CCCN1CCN(c2ncccn2)CC1)c1ccc(F)cc1 (configuration not stated) noted as > 100 mg/kg

====

Target: D(2) dopamine receptor (Rattus norvegicus)
Sequence (P61169 whole entry): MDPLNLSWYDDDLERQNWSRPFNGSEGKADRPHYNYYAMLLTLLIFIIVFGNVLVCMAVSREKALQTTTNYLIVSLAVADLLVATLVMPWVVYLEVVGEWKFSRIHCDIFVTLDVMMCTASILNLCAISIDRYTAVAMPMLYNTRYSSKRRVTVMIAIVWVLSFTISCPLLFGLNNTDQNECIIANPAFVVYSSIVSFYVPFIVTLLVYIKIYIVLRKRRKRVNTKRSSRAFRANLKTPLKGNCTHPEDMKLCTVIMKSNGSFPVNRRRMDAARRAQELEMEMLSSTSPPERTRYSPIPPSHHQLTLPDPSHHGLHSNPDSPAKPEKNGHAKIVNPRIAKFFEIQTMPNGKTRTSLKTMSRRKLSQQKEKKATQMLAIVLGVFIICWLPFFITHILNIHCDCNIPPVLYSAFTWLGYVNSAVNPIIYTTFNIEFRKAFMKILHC
Assay: In vitro inhibitory against radioligand [3H]spiperone binding to rat striatal Dopamine receptor D2
experimental_endpoint: pIC50
Interpret pIC50 as the negative base-10 log of the concentration measured in mol/L.

In the examples that follow, each entry is paired with its recorded pIC50.
Lab book: pIC50 of COc1nc(N2CCN(CCCC(O)c3ccc(F)cc3)CC2)ncc1F (stereo not drawn) noted as 5.40

Lab book: pIC50 of `O=C(CCCN1CCN(c2ncc(Cl)cn2)CC1)c1ccc(F)cc1` noted as 6.09

Lab book: pIC50 of `Fc1ccc(/C=C(\CCN2CCN(c3ncccn3)CC2)c2ccc(F)cc2)cc1` noted as 5.77

Lab book: pIC50 of CC(O)(CCCN1CCN(c2ncc(F)cn2)CC1)c1ccc(F)cc1 (stereo not drawn) noted as 5.67

Lab book: pIC50 of `O=C(CCCN1CCN(c2ncc(Br)cn2)CC1)c1ccc(F)cc1` noted as 5.66

Further cases:
Lab book: pIC50 of `OC(CCCN1CCN(c2ncccn2)CC1)(c1ccc(F)cc1)c1ccc(F)cc1` noted as 6.70

Lab book: pIC50 of OC(CCCN1CCN(c2ncc(Cl)cn2)CC1)c1ccc(F)cc1 (stereo not drawn) noted as 5.25
